Measured pIC50, listed per entry.
- STUDY TARGET: NRAS G12C (Homo sapiens, UniProt P01111+P62937, G12C)
- Sequence (P01111 whole entry G12C, one chain of several): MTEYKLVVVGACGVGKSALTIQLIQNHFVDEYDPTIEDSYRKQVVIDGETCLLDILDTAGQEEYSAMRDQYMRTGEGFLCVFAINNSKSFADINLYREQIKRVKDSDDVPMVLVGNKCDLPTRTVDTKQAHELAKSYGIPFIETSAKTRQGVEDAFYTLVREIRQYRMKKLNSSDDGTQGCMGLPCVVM
- PROCEDURE DETAILS: Disruption of BRAF RBD interaction with Ras (FRET / MOA assay, with Cyclophilin A)
- Assay type: biochemical
- PARTICULARS: NRAS G12C; read-out: NRAS G12C FRET data IC50
pIC50: −log10 of the molar value.

// solved cases for pIC50 follow
1) CCn1c(-c2cccnc2[C@H](C)OC)c2c3cc(ccc31)-c1cc(O)cc(c1)C[C@H](NC(=O)[C@H](C(C)C)N(C)C(=O)C1(CN)CC1)C(=O)N1CCC[C@H](N1)C(=O)OCC(C)(C)C2 [Example A139] ... 7.00 to 8.00
2) CCn1c(-c2cccnc2[C@H](C)OC)c2c3cc(ccc31)-c1csc(n1)C[C@H](NC(=O)[C@H](C(C)C)N(C)C(=O)N1CC3CCN(C)CC31)C(=O)N1CCC[C@H](N1)C(=O)OCC(C)(C)C2 (stereo partly shown) [Example A539] ... 6.00 to 7.00
3) C=CC(=O)N1CC[C@H](C(=O)N(C)[C@H](C(=O)N[C@H]2Cc3nc(cs3)-c3ccc4c(c3)c(c(-c3cccnc3COC)n4CC)CC(C)(C)COC(=O)[C@@H]3CCCN(N3)C2=O)C(C)C)C1 [Example A094] ... 6.00 to 7.00

With those in mind, consider the next compound.
pIC50 for C=CC(=O)N1CCOC2(CCN(C(=O)N(C)[C@H](C(=O)N[C@H]3Cc4cc(CF)cc(c4)-c4ccc5c(c4)c(c(-c4cccnc4[C@H](C)OC)n5CC(F)(F)F)CC(C)(C)COC(=O)C4CCCN(N4)C3=O)C(C)C)CC2)C1 (stereo partly shown) [Example A605] is 6.00 to 7.00

---

IC50 by entry:
- System: NCI-H358 (K-Ras G12C)
- PROCEDURE DETAILS: CellTiter-Glo cell viability assay, 5-day treatment
- Assay type: cell-based
- PARTICULARS: Homo sapiens, NCI-H358, 120 h, 5-day treatment; read-out: H358 Cell Viability assay data (K-Ras G12C, IC50)

1) CCn1c(-c2cccnc2[C@H](C)OC)c2c3cc(ccc31)-c1csc(n1)C[C@H](NC(=O)[C@H](C(C)C)N(C)C(=O)N(C)C1(COC)COC1)C(=O)N1CCC[C@H](N1)C(=O)OCC(C)(C)C2 ... 100 to 1000 nM
2) CCn1c(-c2cccnc2[C@H](C)OC)c2c3cc(ccc31)-c1csc(n1)C[C@H](NC(=O)C1CCC1)C(=O)N1CCC[C@H](N1)C(=O)OCC(C)(C)C2 ... 100 to 1000 nM

The compound listed as CCn1c(-c2cnccc2COC)c2c3cc(ccc31)-c1cc(O)cc(c1)C[C@H](NC(=O)[C@H](C(C)C)N(C)C(=O)[C@H]1CCN(C(=O)C3COC3)C1)C(=O)N1CCC[C@H](N1)C(=O)OCC(C)(C)C2 has a reported IC50 of 1000 to 10000 nM

Query CCn1c(-c2cccnc2[C@H](C)OC)c2c3cc(ccc31)-c1csc(n1)C[C@H](NC(=O)[C@H](C(C)C)N(C)C(=O)N1CC([C@@H](C)OC)C1)C(=O)N1CCC[C@H](N1)C(=O)OCC(C)(C)C2 (atropisomer, axis not shown) yields IC50 of < 10 nM

---

Listed below: IC50 values for each entry.
- STUDY TARGET: NRAS Q61R (Homo sapiens, UniProt P01111+P62937, Q61R)
- Sequence (P01111 whole entry Q61R, one chain of several): as the sequence (P01111 whole entry G12C, one chain of several) above, with C12G, Q61R counted along it
- PROCEDURE DETAILS: Ras-Raf disruption / FRET / MOA assay (BRAF RBD)
- Format: biochemical
- PARTICULARS: NRAS Q61R; read-out: NRAS Q61R FRET data IC50

1. CCn1c(-c2cccnc2[C@H](C)OC)c2c3cc(ccc31)-c1cc(O)cc(c1)C[C@H](NC(=O)[C@H](C(C)C)N(C)C(=O)[C@@H]1CCN(C(=O)[C@H]3CN3)[C@@H]1C)C(=O)N1CCC[C@H](N1)C(=O)OCC(C)(C)C2 (atropisomer, axis not shown) [Example 207] ... 0.1 to 1 µM
2. CCn1c(-c2cccnc2[C@H](C)OC)c2c3cc(ccc31)-c1cc(O)cc(c1)C[C@H](NC(=O)[C@H](C(C)C)N(C)C(=O)[C@H]1CCCN(C(=O)[C@H]3CN3)C1)C(=O)N1CCC[C@H](N1)C(=O)OCC(C)(C)C2 [Example 165] ... 1 to 10 µM
3. CCn1c(-c2cccnc2[C@H](C)OC)c2c3cc(ccc31)-c1cc(O)cc(c1)C[C@H](NC(=O)[C@H](C(C)C)N(C)C(=O)N(C)C1CN(C(=O)[C@H]3CN3)C1)C(=O)N1CCC[C@H](N1)C(=O)OCC(C)(C)C2 (atropisomer, axis not shown) [Example 203] ... 0.1 to 1 µM

Record CCn1c(-c2cccnc2[C@H](C)OC)c2c3cc(ccc31)-c1cc(O)cc(c1)C[C@H](NC(=O)[C@H](C(C)C)N(C)C(=O)c1nc(NC(=O)[C@H]3CN3)cs1)C(=O)N1CCC[C@H](N1)C(=O)OCC(C)(C)C2 (atropisomer, axis not shown) [Example 212] has NRAS Q61R (Homo sapiens, UniProt P01111+P62937, Q61R) IC50 equal to 0.1 to 1 µM

---

Catalogue of molecules with associated pIC50
- STUDY TARGET: KRAS G12D (Homo sapiens, UniProt P01116+P62937, G12D)
- Sequence (P01116 1-169 isoform P01116-2 G12D limits assumed): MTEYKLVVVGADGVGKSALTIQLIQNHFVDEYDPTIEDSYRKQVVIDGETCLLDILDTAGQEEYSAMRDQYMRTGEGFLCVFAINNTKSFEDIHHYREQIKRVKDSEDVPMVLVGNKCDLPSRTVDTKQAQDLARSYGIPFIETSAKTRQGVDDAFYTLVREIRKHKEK
- Sequence (P62937 whole entry): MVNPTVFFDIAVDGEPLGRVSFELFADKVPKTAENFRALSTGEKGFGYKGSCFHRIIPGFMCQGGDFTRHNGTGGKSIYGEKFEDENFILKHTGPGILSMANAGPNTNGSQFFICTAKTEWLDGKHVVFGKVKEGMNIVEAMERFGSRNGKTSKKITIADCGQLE
- PROCEDURE DETAILS: Ras-Raf disruption / FRET / MOA assay (BRAF RBD)
- Format: biochemical
- PARTICULARS: KRAS G12D FRET data IC50, Ras-Raf disruption, with Cyclophilin A
pIC50: −log10 of the molar value.

Sample answers from the record:
1. CCn1c(-c2cccnc2[C@H](C)OC)c2c3cc(ccc31)-c1cc(O)cc(c1)C[C@H](NC(=O)[C@H](C(C)C)N(C)C(=O)CNC(=O)[C@H]1CN1)C(=O)N1CCC[C@H](N1)C(=O)OCC(C)(C)C2 [Example 140] ... 7.00 to 8.00
2. CCn1c(-c2cccnc2[C@H](C)OC)c2c3cc(ccc31)-c1cc(O)cc(c1)C[C@H](NC(=O)[C@H](C(C)C)N(C)C(=O)CN(C)C(=O)[C@H]1CN1)C(=O)N1CCC[C@H](N1)C(=O)OCC(C)(C)C2 (single isomer, unassigned) [Example 42B] ... 5.00 to 6.00
3. CCn1c(-c2cccnc2[C@H](C)OC)c2c3cc(ccc31)-c1cc(O)cc(c1)C[C@H](NC(=O)[C@H](C(C)C)N1CC[C@H](NC(=O)[C@H]3CN3)C1=O)C(=O)N1CCC[C@H](N1)C(=O)OCC(C)(C)C2 [Example 213] ... 5.00 to 6.00
4. CCn1c(-c2cccnc2[C@H](C)OC)c2c3cc(ccc31)-c1cc(O)cc(c1)C[C@H](NC(=O)[C@H](C(C)C)N(C)C(=O)CN(C)C(=O)[C@H]1CN1CC1COC1)C(=O)N1CCC[C@H](N1)C(=O)OCC(C)(C)C2 (some centres unmarked) [Example 277] ... 6.00 to 7.00

The measured pIC50 that CCn1c(-c2cccnc2[C@H](C)OC)c2c3cc(ccc31)-c1cc(O)cc(c1)C[C@H](NC(=O)[C@H](C(C)C)N(C)C(=O)CN(C)C(=O)[C@H]1CN1CC1(C)COC1)C(=O)N1CCC[C@H](N1)C(=O)OCC(C)(C)C2 (some centres unmarked) [Example 279] showed for KRAS G12D (Homo sapiens, UniProt P01116+P62937, G12D) is 6.00 to 7.00

Form: item CCn1c(-c2cccnc2[C@H](C)OC)c2c3cc(ccc31)-c1cc(O)cc(c1)C[C@H](NC(=O)[C@H](C(C)C)N(C)C(=O)CN(C)C(=O)[C@H]1CN1CCOC)C(=O)N1CCC[C@H](N1)C(=O)OCC(C)(C)C2 (some centres unmarked) [Example 159] ; test system KRAS G12D (Homo sapiens, UniProt P01116+P62937, G12D); pIC50: 6.00 to 7.00

The molecule CCn1c(-c2cccnc2[C@H](C)OC)c2c3cc(ccc31)-c1cc(cc(C(F)F)c1)C[C@H](NC(=O)[C@H](C1CCCC1)N(C)C(=O)CN(C)C(=O)[C@@H]1N[C@@H]1C1CC1)C(=O)N1CCC[C@H](N1)C(=O)OCC(C)(C)C2 [Example 320] on KRAS G12D (Homo sapiens, UniProt P01116+P62937, G12D): pIC50 was 5.00 to 6.00

Assay KRAS G12D (Homo sapiens, UniProt P01116+P62937, G12D), sample CCn1c(-c2cccnc2[C@H](C)OC)c2c3cc(ccc31)-c1cc(O)cc(c1)C[C@H](NC(=O)[C@H](C(C)C)N(C)C(=O)CN(C)C(=O)[C@@H]1N[C@@H]1C1CC1)C(=O)N1CCC[C@H](N1)C(=O)OCC(C)(C)C2 [Example 133] , pIC50 read: 7.00 to 8.00
